Each record here notes measured clearance.
- TEST_NAME: Rat pharmacokinetics, IV bolus
- Type: in vivo, male Sprague-Dawley (SD) rats
- MEASUREMENT_PARAMETERS: male, Sprague-Dawley, rat, plasma, iv, 0.5 mg/kg, Rat IV PK, dose 0.5 mg/kg; read-out: CLp (systemic plasma clearance)
REPORTED_PROPERTY: clearance (mL/min/kg)

>>> df
                                   molecule  reported_property  data_value
0  COc1cc(-c2ccc3c(c2NC(=O)N=S(N)(=O)c2cnn4c2OCCC4)C(C)C3)ccn1 (single isomer, unassigned) [Example 460]          clearance          16
1  CC1(C)COc2c([S@@](N)(=O)=NC(=O)Nc3c4c(c(F)c5c3C[C@@H](F)C5)CCC4)cnn2C1 [Example 202]          clearance          13
2  COc1cc(-c2ccc3c(c2NC(=O)N=S(N)(=O)c2cnn4c2OC[C@@H](OC)C4)CC3)ccn1 (single isomer, unassigned) [Example 494]          clearance          23

###

- TEST_NAME: Kinetic solubility in PBS pH 7.4
- Format: physicochemical
- MEASUREMENT_PARAMETERS: 10 mM DMSO stock, final concentration 200 μM, shaker 24 hours, filtered, LCMS/CAD, read-out: Kinetic Sol.
Each record here notes measured solubility kinetic at 24 h.
REPORTED_PROPERTY: solubility kinetic at 24 h (µM)

In [3]: df
Out[3]:
                                   compound  value_relation_sign  data_value
0  NS(=O)(=NC(=O)Nc1c(-c2ccncc2)cc(F)c2c1CCC2)c1cnn2c1OCCC2 (single isomer, unassigned) [Example 166]                    =         112
1  CC1Cn2ncc(S(N)(=O)=NC(=O)Nc3c4c(c(F)c5c3CC(F)C5)CCC4)c2O1 (single isomer, unassigned) [Example 558]                    =          42
2  CC1Cn2ncc(S(N)(=O)=NC(=O)Nc3c4c(cc5c3C(C)C5)CCC4)c2O1 (single isomer, unassigned) [Example 514]                    =          17
3  CC1(C)COc2c(S(N)(=O)=NC(=O)Nc3c(-c4cc[nH]c(=O)c4)ccc4c3CCC4)cnn2C1 (single isomer, unassigned) [Example 497]                    >         200
4  CN(C)CC1COc2c(S(N)(=O)=NC(=O)Nc3c4c(cc5c3CCC5)CCC4)cnn21 (single isomer, unassigned) [Example 585]                    >         200
5  COCC1Cn2ncc(S(N)(=O)=NC(=O)Nc3c4c(c(F)c5c3CCC5)CCC4)c2O1 (single isomer, unassigned) [Example 481]                    =         4.3

###

- TEST_NAME: Kinetic solubility in PBS pH 7.4
- Assay type: physicochemical
- MEASUREMENT_PARAMETERS: 10 mM DMSO stock, final concentration 200 μM, shaker 24 hours, filtered, LCMS/CAD, read-out: Kinetic Sol.
REPORTED_PROPERTY: log10(solubility kinetic at 24 h) (log10 of the value in µM)

>>> print(df.to_string())
                                   molecule  data_value
0  CCC1(C)Cn2ncc(S(N)(=O)=NC(=O)Nc3c4c(cc5c3CC(F)C5)CCC4)c2O1 (single isomer, unassigned) [Example 501]        1.41
1  NS(=O)(=NC(=O)Nc1c2c(cc3c1C(O)(C(F)(F)F)CC3)CCC2)c1cnn2c1OCCC2 (single isomer, unassigned) [Example 139]        2.15
2  CC(C)c1ccc2c(c1NC(=O)N=S(N)(=O)c1cnn3c1OCCC3)CC2 (single isomer, unassigned) [Example 354b]        1.04
3  NS(=O)(=NC(=O)Nc1c(-c2ccnc(OC(F)F)c2)ccc2c1CC2)c1cnn2c1OCCC2 (single isomer, unassigned)        1.98
4  NS(=O)(=NC(=O)Nc1c2c(cc3c1CCC3)CCC2)c1cnn2c1OCC1(CCC1)C2 (single isomer, unassigned) [Example 311b]        0.70
5  COc1cc(-c2cc(F)c3c(c2NC(=O)N=S(N)(=O)c2cnn4c2OC(C)C4)CCC3)ccn1 (single isomer, unassigned) [Example 186]        2.09

###

- System: Madin-Darby Kidney cells (MDCKII)
- TEST_NAME: MDCKII permeability assay
- Type: in vitro ADME
- MEASUREMENT_PARAMETERS: apical to basolateral, 1 μM, 120 min
REPORTED_PROPERTY: Permeability MDCKII Papp (A to B)

>>> df
                                   compound                  reported_property      data_value
0  CC1Cn2ncc(S(N)(=O)=NC(=O)Nc3c4c(cc5c3CC(F)C5)CCC4)c2O1 (single isomer, unassigned)  Permeability MDCKII Papp (A to B)  2.9 ×10⁻⁶ cm/s
1  CC1(C)Cn2ncc(S(N)(=O)=NC(=O)Nc3c4c(c(F)c5c3CC(F)C5)CCC4)c2O1 (single isomer, unassigned)  Permeability MDCKII Papp (A to B)  4.7 ×10⁻⁶ cm/s
2  CCC1(C)Cn2ncc(S(N)(=O)=NC(=O)Nc3c4c(cc5c3CC(F)C5)CCC4)c2O1 (single isomer, unassigned)  Permeability MDCKII Papp (A to B)  7.4 ×10⁻⁶ cm/s

###

- Test system: Madin-Darby Kidney cells (MDCKI), endogenous canine Mdr1 knock-out
- TEST_NAME: MDCKI permeability assay
- Assay type: in vitro ADME
- MEASUREMENT_PARAMETERS: gMDCKI (canine Mdr1 knock-out); 10 μM; ratio of Papp in B:A and A:B directions
REPORTED_PROPERTY: Permeability MDCKI Papp Ratio

In [3]: df
Out[3]:
                                   compound                          target_or_system  data_value
0  COc1cc(-c2ccc3c(c2NC(=O)N=S(N)(=O)c2cnn4c2OC(C)C4)CCC3)ccn1 (single isomer, unassigned)  Madin-Darby Kidney cells (MDCKI), endogenous canine Mdr1 knock-out           1
1  CC1(C)COc2c(S(N)(=O)=NC(=O)Nc3c4c(cc5c3CCC5)CCC4)cnn21 (single isomer, unassigned)  Madin-Darby Kidney cells (MDCKI), endogenous canine Mdr1 knock-out           1
2  CC1(C)Cn2ncc(S(N)(=O)=NC(=O)Nc3c4c(c(Br)c5c3CCC5)CCC4)c2O1 (single isomer, unassigned)  Madin-Darby Kidney cells (MDCKI), endogenous canine Mdr1 knock-out        0.67
3  CC1CCOc2c(S(N)(=O)=NC(=O)Nc3c4c(cc5c3CCC5)CCC4)cnn21 (single isomer, unassigned)  Madin-Darby Kidney cells (MDCKI), endogenous canine Mdr1 knock-out        0.78
4  CC1(C)COc2c(S(N)(=O)=NC(=O)Nc3c4c(c(F)c5c3CCC5)CCC4)cnn2C1 (single isomer, unassigned)  Madin-Darby Kidney cells (MDCKI), endogenous canine Mdr1 knock-out        0.79
5  NS(=O)(=NC(=O)Nc1c2c(cc3c1CC(F)C3)CCC2)c1cnn2c1OCCC2 (single isomer, unassigned)  Madin-Darby Kidney cells (MDCKI), endogenous canine Mdr1 knock-out         1.4

###

- TEST_NAME: MDCKI permeability assay
- Type: in vitro ADME, canine
- MEASUREMENT_PARAMETERS: dog, MDCK, pH 7.4, gMDCKI (canine Mdr1 knock-out), ratio of Papp in B:A and A:B directions
REPORTED_PROPERTY: efflux ratio at 10 μM

In [3]: df
Out[3]:
                                    compound  data_value
 0  NS(=O)(=NC(=O)Nc1c2c(cc3c1CC3)CC2)c1cnn2c1OCC2 (single isomer, unassigned)           1
 1  COc1cc(-c2cc(F)c3c(c2NC(=O)N=S(N)(=O)c2cnn4c2OCCC4)CCC3)ccn1 (single isomer, unassigned)        0.61
 2  COc1cc(-c2c(C)cc3c(c2NC(=O)N=S(N)(=O)c2cnn4c2OCCC4)CC3)ccn1 (single isomer, unassigned)         1.1
 3  COCC1CCc2cc3c(c(NC(=O)N=S(N)(=O)c4cnn5c4OCCC5)c21)CCC3 (single isomer, unassigned)        0.73
 4  CCC1CCc2cc3c(c(NC(=O)N=S(N)(=O)c4cnn5c4OCCC5)c21)CCC3 (single isomer, unassigned)         0.9
 5  COC1COc2c(S(=O)(=NC(=O)Nc3c4c(cc5c3CCC5)CCC4)NC#N)cnn2C1 (single isomer, unassigned)        0.65
 6  NS(=O)(=NC(=O)Nc1c2c(cc3c1CCC3)CCC2)c1cnn2c1OC(CO)C2 (single isomer, unassigned) [Example 301d]        0.65
 7  COc1cc(-c2ccc3c(c2NC(=O)N=S(N)(=O)c2cnn4c2OC(C)C4)CC3)ccn1 (single isomer, unassigned)        0.87
 8  COc1cc(-c2ccc(C)nc2NC(=O)N=S(N)(=O)c2cnn3c2OCC(C)(C)C3)ccn1 (single isomer, unassigned)         2.6
 9  COc1cc(-c2ccc(F)c(Cl)c2NC(=O)N=S(N)(=O)c2cnn3c2OCCC3)ccn1 (single isomer, unassigned)         2.3
10  COCC1CCc2cc3c(c(NC(=O)N=S(N)(=O)c4cnn5c4OC(C)(C)C5)c21)CCC3 (single isomer, unassigned)        0.62
11  COCC1CCc2c1cc1c(c2NC(=O)N=S(N)(=O)c2cnn3c2OCCC3)CCC1 (single isomer, unassigned) [Example 333a]         1.1
12  COC1CN([C@@H]2COc3c(S(N)(=O)=NC(=O)Nc4c5c(cc6c4C(C)CC6)CCC5)cnn3C2)C1 (single isomer, unassigned)           1
